- Measured On: Solute carrier family 22 member 12 (Homo sapiens)
- Sequence (Q96S37 whole entry): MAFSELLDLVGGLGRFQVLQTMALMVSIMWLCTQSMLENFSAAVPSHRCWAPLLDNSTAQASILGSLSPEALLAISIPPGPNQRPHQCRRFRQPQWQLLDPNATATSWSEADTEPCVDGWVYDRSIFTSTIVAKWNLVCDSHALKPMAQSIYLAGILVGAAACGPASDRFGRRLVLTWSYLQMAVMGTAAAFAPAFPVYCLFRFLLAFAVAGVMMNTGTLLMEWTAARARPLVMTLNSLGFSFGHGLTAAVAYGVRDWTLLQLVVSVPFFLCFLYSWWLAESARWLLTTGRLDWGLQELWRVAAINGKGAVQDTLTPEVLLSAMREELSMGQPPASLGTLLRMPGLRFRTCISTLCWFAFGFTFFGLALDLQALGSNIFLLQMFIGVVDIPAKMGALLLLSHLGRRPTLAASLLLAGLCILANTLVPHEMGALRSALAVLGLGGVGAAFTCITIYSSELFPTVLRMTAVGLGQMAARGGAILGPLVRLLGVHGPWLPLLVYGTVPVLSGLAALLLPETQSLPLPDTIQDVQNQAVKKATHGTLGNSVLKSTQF
Value Type: IC50 (nM)

• N#Cc1ccc(Oc2ccc(S(=O)(=O)Nc3ccc(F)cn3)cc2C#N)c(F)c1 = 47
• Cc1ccc(Cl)c(Oc2ccc(S(=O)(=O)Nc3ccc(F)cn3)cc2C#N)c1 = 196
• N#Cc1ccccc1Oc1ccc(S(=O)(=O)Nc2ccc(F)cn2)cc1C#N = 495
• Cc1ccc(F)c(Oc2ccc(S(=O)(=O)Nc3ccc(F)cn3)cc2C#N)c1 = 117
• CNc1ncc(Oc2ccc(S(=O)(=O)Nc3ccc(F)cn3)cc2C#N)cc1Cl = 258
